- SYSTEM: human 11β-HSD1 (Homo sapiens)
- Construct: expressed in transfected cells; host or cells: HEK-293 cells, stably transfected; cell lysate
- Sequence (P28845 whole entry): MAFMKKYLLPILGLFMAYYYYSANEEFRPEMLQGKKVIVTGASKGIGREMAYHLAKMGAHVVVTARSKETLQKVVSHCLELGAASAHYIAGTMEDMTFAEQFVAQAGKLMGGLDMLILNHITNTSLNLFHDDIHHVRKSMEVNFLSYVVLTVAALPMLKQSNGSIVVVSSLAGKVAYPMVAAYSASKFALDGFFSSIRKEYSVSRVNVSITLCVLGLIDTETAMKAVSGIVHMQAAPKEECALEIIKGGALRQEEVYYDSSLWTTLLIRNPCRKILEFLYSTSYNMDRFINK
- ASSAY NAME: 11β-HSD1 reductase activity (conversion of radiolabelled cortisone to cortisol) in lysates of stably transfected HEK-293 cells
- Format: biochemical
- CONDITION LABEL: determination 3; 7 inhibitor concentrations at factor 2 intervals; read-out: IC 50 11β-HSD1, determination 3

>  <MOLECULE>
C[C@H]1CC[C@]2(C)[C@H]3C(=O)C=C4[C@@H]5C[C@@](C)(C(=O)O)CC[C@]5(C)CC[C@@]4(C)[C@]3(C)CC[C@H]2C1(C)C [BNW25]

>  <IC50, nM>
161

$$$$
